Reference for the values: patent US20240002393A1

- Target under test: human GABAA α2β2γ1 receptor (Homo sapiens (Human), UniProt P47869+Q8N1C3)
- Assay: Radioligand binding assay, [3H]RO7239181 competition, γ1-containing GABAA subtypes
- Reported conditions: Log[Ki α1β3γ2 (nM)/Ki α2β2γ1 (nM)]
Reported property: LogSel

Solved entries (count: 3):
- Compound: "Cc1cc(-c2nnc3n2-c2ccc(Cl)c(Cl)c2C(c2c(F)cccc2F)=N[C@H]3C)ncn1"
  LogSel: 1.88
- Compound: "Cc1nnc2n1-c1ccc(Br)c(Cl)c1C(c1c(F)cccc1F)=N[C@H]2CO"
  LogSel: 1.27
- Compound: "C[C@@H]1N=C(c2ncccc2F)c2c(ccc(Br)c2Cl)-n2c(C3CC3)nnc21"
  LogSel: 1.57

// each listed compound needs a value for LogSel
1. Cc1ncc2n1-c1ccc(Cl)cc1C(c1ccccc1F)=NC2 [Midazolam, reference compound]
2. C[C@@H]1N=C(c2ncccc2F)c2c(ccc(Cl)c2Cl)-n2c(C3CC3)nnc21
3. C[C@@H]1N=C(c2c(F)cccc2F)c2c(ccc(Cl)c2Cl)-n2c(-c3ccncn3)nnc21
4. C[C@@H]1N=C(c2ncccc2F)c2c(ccc(Br)c2Cl)-n2cnnc21
5. OC1N=C(c2ccccc2F)c2c(ccc(Br)c2Cl)-n2c(-c3cccnn3)nnc21 (stereo not shown)

Response:
["−2.2", 1.44, 2.05, 1.23, 1.55]
